MEASURED_ON: MHV HR2 peptide (MHV)
MEASUREMENT_DESCRIPTION: peptide ELISA
Lab note: compare EC50 with 0.02 mg/L, writing 1 if less and -1 if equal or more.

Q: Quick check: EC50 of hr2.090 (antibody, V domains shown) VH: EVQLLESGGGLVQPGGSLRLSCAASGVTFSRYAMSWVRQAPGKGLEWVSTISGGGGGTYYADSVKGRFTISRDNSKNTLYLQMNSLRAEDTAVYYCATLLTVPGPYYFEYWGQGTLVTVSS VL: EIVLTQSPGTLSLSPGERATLSCRASQSVSSSYLAWYQQKPGQAPRLLIYGASSRATGIPDRFSGSGSGTDFTLTISRLESEDFAVYYCQHSRFTFGPGTRVDIK under 0.02 mg/L?
Ans: -1

Q: Quick check: EC50 of hr2.012 (antibody, V domains shown) VH: QVQLVQSGAEVKKPGASVKVSCKASGYTFTSHYIHWVRQAPGQGLEWMGIIKPSGGNTIYAQTFQGRVTMTRDTSTSTVYMELRSLTSDDTAVYYCARDQDHGLQRWGQGTLVTVSS VL: QSVLTQPPSVSAPPGQKVTISCSGSSSNIGNNFVSWYQQLPGTAPKLLIYDNIERPSGIPDRFSGSRSGTSATLGITGLQTGDEADYYCGTWDTSLGAWVFGGGTKVTVL under 0.02 mg/L?
Ans: 1

Q: Quick check: EC50 of hr2.015 (antibody, V domains shown) VH: QVQLVQSGAEVKKPGASVKVSCKASGYTFSSYYVNWVRQAPGQGLEWLGIINRSGSSTIYAQKFQGRVTMTRDTSTSTVYLELSSLRSEDTAVYYCARDQDHALHWGQGTLVTVSS VL: QSVLTQPPSVSAAPGQKVTISCSGSSSNIGSNYVSWYQQLPGTAPKLLIYDNSERPSGIPDRFSGSRSGTSATLGITGLQTGDEADYYCGTWDTSLSAWVFGGGTKLTVL under 0.02 mg/L?
Ans: -1

Q: Quick check: EC50 of hr2.020 (antibody, V domains shown) VH: EVQLVQSGAEVKKPGESLKISCKGSGYRFASHWIGWVRQMPGKGLQWMGIIYPGDSDTKYSPSFQGQVTISADKSINTVYLHWTSLKASDTAVYYCARRPPHLDGGDSPIRFDHWGQGTLVTVSS VL: QSVLTQPPSASGTPGQRVTISCSGSRSNIGSNDVYWYQQFPGTAPKLLIYRNNQRPSGVPDRFSGSKSGTSASLAISGLRSEDEADYYCATWDDRLTGVFGGGTKLTVV under 0.02 mg/L?
Ans: -1

Q: Quick check: EC50 of hr2.094 (antibody, V domains shown) VH: EVQLVESGGGLVQPGGSLRLSCAASGFTFSTFWMTWVRQAPGKGLEWVANIKSDGSEKYYVDSVKGRFTISRDNAKNSLYLQMNSLRAEDTAVYYCATWFGLHWGQGTLVTVSS VL: DIVMTQSPDSLAVSLGERASINCKSSQTVLYSSNNKNYLAWYQQKPGQPPKLLIHWASTRDSGVPDRFSGSGSGTDFTLTISSLQAEDVAVYYCQQYHRIPWTFGRGTKVEIK under 0.02 mg/L?
Ans: 1

Q: Quick check: EC50 of hr2.023 (antibody, V domains shown) VH: QVQLVQSGAEVKKPGASVKVSCRASENIFSDSYLHWVRQAPGQGLEWMGIITPSGDKTFYAQQFQGRLTMTRDTPTNTLHMDLRGLTSADTAIYYCARQATKGGWDYWGQGTLVTVSS VL: EIVLTQSPGTLSLSPGESATLSCRASQSVTRNYLAWYQQQPGQAPRLLIYGASNRATGVPDRFSGSGSGTDFTLTISRLEPEDFAVYYCQQYGSSPPTFIFGPGTKVDIK under 0.02 mg/L?
Ans: 1
